Tested on: K-562 leukemia
protocol-text: NCI tumour cell line growth inhibition, 48 h; in the data active = GI50 below about 0.43 µM; inactive = the rest
Your answer must be one of the following: Y (active), N (inactive)

These solved cases illustrate the format of a correct answer.
molecule="CC[Si](CC)(CC)OC1[C@@H](O[Si](CC)(CC)CC)[C@@H](CNC(=O)NC)O[C@H]1n1cnc2c(NC(=O)Nc3ccccc3)ncnc21 (stereo partly specified)" discrete_label=N
molecule="CCOP(=O)(OCC)C(NC(c1ccccc1)c1ccccc1)c1ccc(C(C)C)cc1 (stereo unspecified)" discrete_label=N
molecule=N/C(=N/S(=O)(=O)c1cc(C(=O)Nc2ccc(F)cc2)c(Cl)cc1SCc1ccccc1)Nc1ccccc1O discrete_label=N
molecule=NCCCNc1nc2ccccc2c2c(=O)c3cc(F)cc(Cl)c3sc12 discrete_label=N
molecule=COC(=O)[C@H](CCCCNC(=O)OCc1ccccc1)NC(=O)[C@@H](NC(=O)Nc1cc(C(F)(F)F)cc(C(F)(F)F)c1)C(C)C discrete_label=N

Q: # fetch the recorded call for C=C1C(=O)O[C@H]2[C@H]1CC/C(COC(=O)N[C@H](Cc1c[nH]c3ccccc13)C(=O)OC)=C\CC[C@@]1(C)O[C@@H]21 here
A: N

Q: # fetch the recorded call for CCOC(=O)c1cc2c(n1Cc1ccccc1OC)-c1oncc1CCC2 here
A: N

Q: # fetch the recorded call for CC(=O)O[C@H]1CC[C@]2(C)C3C(=O)C[C@]4(C)[C@@H](C(C)CCC(=O)O)CC[C@@]4(C)[C@@H]3CC[C@H]2C1(C)C (stereo partly specified) here
A: N

Q: # fetch the recorded call for CCN(CC)CCCNc1cc(OC)c(OC)c2cccnc12 here
A: N

Q: # fetch the recorded call for C[C@@H](Oc1cc(-c2cnn(C3CCNCC3)c2)cnc1N)c1c(Cl)cc(F)cc1Cl here
A: Y

Q: # fetch the recorded call for OCC1OC(n2cnc3c(NCc4ccccc4O)ncnc32)C(O)C1O (stereo unspecified) here
A: N

###

Listed next: entries and their corresponding TGI.
Test system: EKVX NSCLC
protocol-text: NCI tumour cell line growth inhibition, 48 h

compound="CC1N=C(c2ccccc2)OC1=O (configuration not stated)" obs_value="> 100 µM"
compound=Cc1cc(OCc2nn(CN3CCN(C)CC3)c(=S)n2/N=C/c2ccc(F)cc2)ccc1Cl obs_value="43 µM"
compound=CCCCNCCCCCNc1cc(OC)cc2cccnc12 obs_value="99.2 µM"
compound="CCC(C)C(=O)OC1CCC=C2C=CC(C)C(CCC3CC(O)CC(=O)O3)C21 (configuration not stated)" obs_value="> 100 µM"
compound=NS(=O)(=O)c1cc(C(=O)O)c(Cl)c([N+](=O)[O-])c1Cl obs_value="> 100 µM"
compound=Cn1cc(-c2nc(-c3cn(C)c4ncccc34)cs2)c2ccccc21 obs_value="> 100 µM"
compound=COc1cccc(-c2nn(-c3ccccc3)cc2-c2ccnc(NCCCNS(=O)(=O)c3ccc(C(F)(F)F)cc3)c2)c1 obs_value="> 100 µM"
compound=CCOC(=O)c1ccn2c(c1)c(C#N)c1nc3ccccc3nc12 obs_value="> 100 µM"
compound="N#CC(C#N)=C1CCC2C(=C(C#N)C#N)CCC12 (configuration not stated)" obs_value="> 100 µM"
compound="O=c1[nH]c(=O)n(C2OC(CO)C(O)C2O)cc1F (configuration not stated)" obs_value="> 93.8 µM"

Q: # get_value(readout='TGI', item= Oc1ccc(/C=N/NC(=S)Nc2cccnc2)nc1 )
A: > 100 µM

Q: # get_value(readout='TGI', item= NC(Cc1c[nH]c2cccc(F)c12)C(=O)O (configuration not stated) )
A: > 4500 µM

###

Tested on: HCT-116 colon
protocol-text: NCI tumour cell line growth inhibition, 48 h; in the data active means GI50 below about 0.43 µM; inactive means the rest
Your answer must be one of the following: active, inactive

Q: # fetch the recorded call for CCN(CC)CCCNc1cc(OC)c(OC)c2cccnc12 here
A: inactive

Q: # fetch the recorded call for COc1ccc(NC(=O)c2cccc(C3CCc4c(cc(OC)c(OC)c4OC)O3)c2)cc1 (configuration not stated) here
A: inactive

Q: # fetch the recorded call for O=C(CC1Sc2ccccc2NC1=O)NNc1ccc(F)cc1 (configuration not stated) here
A: inactive

Q: # fetch the recorded call for CC(C)(C)OC(=O)N1Cc2cc3ccccc3nc2C1CO (configuration not stated) here
A: inactive

Q: # fetch the recorded call for COc1ccc2c(c1)C(=O)c1c-2n(CCCCl)c(=O)c2cc(N)ccc12 here
A: inactive

Q: # fetch the recorded call for CCOC(=O)c1cc2c(n1Cc1cc(OC)cc(OC)c1)-c1oncc1CC2 here
A: active

Q: # fetch the recorded call for CCOC(=O)c1cc(C(=O)c2cc(OC)c(OC)c(OC)c2)n2ccc(-c3cc[n+](CC(=O)c4cc(OC)c(OC)c(OC)c4)cc3)cc12 here
A: inactive

Q: # fetch the recorded call for CC(=O)O[C@H]1CC[C@]2(C)C3C(=O)C[C@]4(C)[C@@H](C(C)CCC(=O)O)CC[C@@]4(C)[C@@H]3CC[C@H]2C1(C)C (some centres not stated) here
A: inactive

Q: # fetch the recorded call for CC(=N\O)/C(C)=N/O.CC(=N\O)/C(C)=N/O.[Fe].[NH2-].c1c[nH]cn1 here
A: inactive

Q: # fetch the recorded call for N/C(=N/S(=O)(=O)c1cc(C(=O)Nc2ccc(F)cc2)c(Cl)cc1SCc1ccccc1)Nc1ccccc1O here
A: inactive

Q: # fetch the recorded call for CC[Si](CC)(CC)OC1[C@@H](O[Si](CC)(CC)CC)[C@@H](CNC(=O)NC)O[C@H]1n1cnc2c(NC(=O)Nc3ccccc3)ncnc21 (some centres not stated) here
A: inactive

Q: # fetch the recorded call for C1=C\CCCCN2CC[C@H]3[C@H](CCCC/C=C\CCCN4C[C@@H](CCCCC/1)C[C@@H]3C4)C2 here
A: inactive

Q: # fetch the recorded call for O=c1[nH]c(=O)n(C2OC(CO)C(O)C2O)cc1F (configuration not stated) here
A: active

Q: # fetch the recorded call for C/C=C(\C)C(=O)O[C@@H]1C=CC(=O)O[C@H]1CNC(=O)[C@H](C)O here
A: inactive

Q: # fetch the recorded call for Nc1nc(N)c(-c2ccc(Cl)c(Cl)c2)c(CP(Cl)(Cl)(Cl)Br)n1 here
A: inactive

Q: # fetch the recorded call for Cn1cc(-c2nc(-c3cn(C)c4ncccc34)cs2)c2ccccc21 here
A: inactive

Q: # fetch the recorded call for C=C1C(O)C2CC(C)(C)C(=O)C2=C(CC(C)C)C12CC2 (configuration not stated) here
A: inactive

###

Test system: CCRF-CEM leukemia
protocol-text: NCI tumour cell line growth inhibition, 48 h; in the data active = GI50 below about 0.43 µM; inactive = the rest
Your answer must be one of the following: 1.0 for active, 0.0 for inactive

Q: # fetch the recorded call for CCOC(=O)c1cc2c(n1Cc1ccccc1OC)-c1oncc1CCC2 here
A: 0.0

Q: # fetch the recorded call for CCC(C(=O)[C@@H](C)[C@@H](O)[C@H](C)[C@@H]1O[C@@H]([C@@H](CC)C(=O)ONC(=O)c2ccccc2)CC[C@@H]1C)[C@H]1O[C@]2(C=CC(=O)[C@]3(CC[C@@](C)([C@H]4CC[C@](O)(CC)[C@H](C)O4)O3)O2)[C@H](C)C[C@@H]1C (stereo partly specified) here
A: 1.0

Q: # fetch the recorded call for CC(=O)c1ccc(Oc2c3ccccc3nc3occc23)cc1 here
A: 0.0

Q: # fetch the recorded call for Cn1cc(-c2nc(-c3cn(C)c4ncccc34)cs2)c2ccccc21 here
A: 0.0

Q: # fetch the recorded call for CC1(C)CC[C@]2(CO)CC[C@]3(C)C(=CC[C@@H]4[C@@]5(C)CCNCC(C)(C)[C@@H]5CC[C@]43C)[C@@H]2C1 here
A: 0.0

###

Listed next: entries and their corresponding TGI.
System: SNB-75 CNS
protocol-text: NCI tumour cell line growth inhibition, 48 h
A number alone suffices; assume µM.

molecule=Cc1cn2c(/C=C3\C(=O)N(C)c4ccc(Cl)cc43)c(C)nc2s1 measurement_unit=µM obs_value=7.32

Query molecule follows.
Q: API: value(readout= TGI, system= SNB-75 CNS, query= CCOC(=O)CCc1ccc(NC(=O)/C=C/c2ccc([N+](=O)[O-])o2)cc1 )
A: 11.2

###

System: NCI/ADR-RES ovarian
protocol-text: NCI tumour cell line growth inhibition, 48 h
recorded-endpoint: GI50

Answered cases to consult:
mol_smiles=Cc1cc(OCc2nn(CN3CCN(C)CC3)c(=S)n2/N=C/c2ccc(F)cc2)ccc1Cl experimental_target="NCI/ADR-RES ovarian" obs_value="18.8 µM"
mol_smiles=CC1(C)CC[C@]2(CO)CC[C@]3(C)C(=CC[C@@H]4[C@@]5(C)CCNCC(C)(C)[C@@H]5CC[C@]43C)[C@@H]2C1 experimental_target="NCI/ADR-RES ovarian" obs_value="9.4 µM"
mol_smiles=C1=C\CCCCN2CC[C@H]3[C@H](CCCC/C=C\CCCN4C[C@@H](CCCCC/1)C[C@@H]3C4)C2 experimental_target="NCI/ADR-RES ovarian" obs_value="13.8 µM"

Query compound follows.
Q: # get_value(readout='GI50', item= Cc1nn(-c2ccccc2)c2nc(C)n(-c3ccc(Br)cc3)c(=O)c12 )
A: 0.449 µM
